Cited source for all entries: patent US10982337B2

Test: Marine algal growth inhibition test ISO 10253
Format: cell-based, Skeletonema costatum
Details: Skeletonema costatum, cultures of the marine alga Skeletonema costatum; algal growth inhibition, 72 h, WAF in sea water, 10-1000 mg/L tested
Endpoint: EC90 at 72 h

1. c1ccc2c(c1)CCCN2Cc1cccc2ccccc12 = > 1000 µg/mL
